# Assay text: yeast display, Sf9 membrane polyspecificity reagent, FACS + sequencing; frameworks hold sequencing errors
Property name: polyreactivity (PSR sort gate)

[[record]]
monomer_sequence = "QVQLVESGGGLVQAGGSLRLSCAASGRIFRSYAMGWYREAPGKERELVAAISSGGSTNYADSVKGRFTISRDNAKNTVYLQLNSLKPEDTAVYYCAAELWAYTWYWHSDYWGQGTQVTVSS"
property_name = "polyreactivity (PSR sort gate)"
recorded_result = "low polyreactivity"

[[record]]
monomer_sequence = "QVQLVESGGGLVQAGGSLRLSCAASGFTFVDYMGWYRQAPGKERELVAAIDNSGGGTYYADSVKGRFTISRDNAKNTVYLQMNSLKPEDTAVYYRYAYTFYIYEDVLYVQGDYYWGQGTQVTVSS"
property_name = "polyreactivity (PSR sort gate)"
recorded_result = "low polyreactivity"

[[record]]
monomer_sequence = "QVQLVESGGCLVQAGGSLRLTCAASGRTFYRYAMGWSRQAPRKERELVAAITTSGGSTYYADSVKGRFTISRDNAMTTVFLQKNSLNPDDTEVYYCAATYYGYHIRDDYWGQGTQVTVSS"
property_name = "polyreactivity (PSR sort gate)"
recorded_result = "low polyreactivity"


---

# Assay text: yeast display, Sf9 membrane polyspecificity reagent, FACS + sequencing; frameworks hold sequencing errors
Property name: polyreactivity (PSR sort gate)

Field: example entries. Status: answers known.
[[record]]
monomer_sequence = "QVQLVESGGGLVQAGGSLRLSCAASGRILGFYAMGWYRQAPGKEMELVARINWSGTRTYYADSVKGRFTISRDNAKNTVYLQMNSLKPEDTAVYYCAAERYPYGVTYSKLDYWGQGTQVTVSS"
property_name = "polyreactivity (PSR sort gate)"
recorded_result = "high polyreactivity"

[[record]]
monomer_sequence = "QVQLVESGGGLVQAGGSLRLSCAASGSTFDAYAMGWYRQAPGKERELVAAITWSGGSTYYADSVKGRFTISRDNAKNTVYLQMNSLKPEDTAVYYCAAYYLIFYFEFDYWGQGTQVTVSS"
property_name = "polyreactivity (PSR sort gate)"
recorded_result = "low polyreactivity"

[[record]]
monomer_sequence = "QVHLVESGGGLVQAGGSLRLSCAASGRIFSRNAMGRYRQAPGKERELVAAISSDGNTNYADSVKGFTISRDNAKNTVYLQMNSLKPESTAVYYCAARFGYTAYGYWGQGTQVTVSS"
property_name = "polyreactivity (PSR sort gate)"
recorded_result = "low polyreactivity"

[[record]]
monomer_sequence = "QVQIVESGGGLVQAGGSLRISCAASGRTFYWNAMGWNREAPGKEMELVSAISDGGGSTYYADSVKGRFSISRDNAKNTVYLQMNSLKPEDTAVYYCNTPDNQDKPYPGYDYWGQGTQVTVSS"
property_name = "polyreactivity (PSR sort gate)"
recorded_result = "low polyreactivity"

[[record]]
monomer_sequence = "QVQLVESGGGLVQAGGSLRLSCAASGIIFESYAMGWYRPAPGKERELVAAISWDGGSTYYADSVKGRFTISRDNAKNTVYLQMNSQKPEDTAVYYCAAESYGIYDGYDYWGQGTQVTVSS"
property_name = "polyreactivity (PSR sort gate)"
recorded_result = "high polyreactivity"

[[record]]
monomer_sequence = "QVQLVESGGGLVQAGGSLRLSCAASGSTFPPYGMGWYRQAPGKERELVASITSGGSTNYADSVKGRFTISRDNAKNTVYLQMNSLKPEDTAVYYCNADLHSHYDYWGQGTQVTVSS"
property_name = "polyreactivity (PSR sort gate)"
recorded_result = "low polyreactivity"

[[record]]
monomer_sequence = "QVQLVESGGGLVQAGGSLRLSCAASGFIFAKYAMGWYRQAPGKERALGAAITSGGSTNYADSVKGRFTISRDNAKNTLYLQMNSLNPEDTAVYSCNRGFDWCYRYRHYDYWGQGTQVTVSS"
property_name = "polyreactivity (PSR sort gate)"
recorded_result = "low polyreactivity"

[[record]]
monomer_sequence = "QVQLVESGGGLVQAGGSLRLSCAASGSIFGPNAMGWYRQAPGKESELVAAITLSGGSTYYADSVKGRFTISRDNAKNTVYLQMYSLKPEDTAVYYCNADLLPADAPLWVTGGDYWGQGTQVTVTS"
property_name = "polyreactivity (PSR sort gate)"
recorded_result = "low polyreactivity"


// query polyreactivity (PSR sort gate) value for entry `QVQLVESGGGLVQAGGSLRVSCAASGRNFYYYAMGGYRQAPGKERELVAAINWSGGGTYYADSVKGRFTISRDNAKNTVYFQMNSLKPEDTAVYYCAAGFRYRYYWGQGTQVTVSS`
high polyreactivity

Subsequent entry: `QVQLVESGGGLVQAGGSLRLSCAASGSIFPQYAIGWYRQAPGKERELVAAITRSGGGTHYADSVKGRFTISRDNAKNTVYLQMNSLKPEDTAVYYCAKAGYRSEFEYWGQGTQVTVSS`
low polyreactivity

Another sequence to look at: `QVQLVESGGGLVQAGGSLRLSCAASGSIFDVYAMGWYRQAPGKERELVATISNSAGSTYYADSVKGRFTISRDNAKNTVYLQMNSLKPEDTAVYYCAAVVVYFDEYDYWGQGTQVTVSS`
low polyreactivity

---

# Assay text: yeast display, Sf9 membrane polyspecificity reagent, FACS + sequencing; frameworks hold sequencing errors
Property name: polyreactivity (PSR sort gate)

# count of solved cases: 6
[[record]]
monomer_sequence = "QVQLVESGGGLVQAGGSLRLSCAASGRIFSRYVMGWYRQAPGKERELVAAITRNGGNTYYADSVTGRFTISRDNAKNTVYLQMNSLKPEDTAVYYCAGRAVLKSWAYYYWGQGTQVTVSS"
recorded_result = "high polyreactivity"

[[record]]
monomer_sequence = "QFQLVESGGGLVQAGGSLRLSCAASGRIFYRYAMGWYIQAPGKERELVAAITSGTSTNYADSVKGRFTISRDNAKNTVYVQMNSLKPEDTAVYYCAKRYYWKYAEYDYWGQGTLVTVSS"
recorded_result = "high polyreactivity"

[[record]]
monomer_sequence = "QVQLVESGGGLVQAGGSLRLSCAASGRTFPAYTMGWYRQAPGKERELVAAISRVGTTYYADSVKGRFTISRDNAKNTGYIQMNSLKPEDTAFYYCNARTWSWSFDYWGQGTLVTVSS"
recorded_result = "high polyreactivity"

[[record]]
monomer_sequence = "QVQLVESGGGLVQAGGSLRLSCASSGRTFGTYAMGSYRQAPGKDSELVAAITSGTRTYYADCVKGRFTISRDNAKNTVYLQMNSQKPEDTSVYYCAAGLVYRWSSTPRRLYYYWGQGTQVTVSS"
recorded_result = "high polyreactivity"

[[record]]
monomer_sequence = "QVQLVESGGGLVQAGGSLRLSCAASGSIFGINAMGWYRQAPGKERELVAAITWSGGSTFYADSVKGRFTISRDNAKNTVYLQMNSLKPEDTAVYYCAASYSRWYWLYTSDYWGQGTQVTVSS"
recorded_result = "high polyreactivity"

[[record]]
monomer_sequence = "QVQLVESGGGLVQAGGSLRLSCAASGFTFYRNAMGWYRQAPGKERELVAGISKRGGSTYYADSVKGRFTISRDNAKNTVYLLMNSLKPEDTAVYYCARGGYPGSAEYDYWGQGTQVTVSS"
recorded_result = "high polyreactivity"


Entry under review: `QVQLVESGGGLDQAGGSLRLSCAASGRTFYVYGMGWSRQAPGKERELVAAIRSSGGSTYADSVKGRFTISRDNAKKTVYLQMNSLKPEDTAVDYCAADRRYAESGYYWGQGTQVTVSS` . Reported polyreactivity (PSR sort gate)?
high polyreactivity

Another sequence: `QVQLVESGGGLVQAGGSLRLSCAASGSTFESNAMRWYRQAPGKERELVAAISRGGNTYYADSVKGLFTISRDNAKYTVYLQMHSLKPEDTAVYYCNVDRGNPVPPSEYWGQGTKVTVSS`
low polyreactivity

Then this sequence: `QVQLVESGGGLVQAGGSLRLSCAASGIIFFRYAMGWYRQAPGKERELVAAISLSGGRTYYADSVKGRFTISRDNANNTVYLQMNSVKPEDTAVYYCNTLHRYSSQRYDYWGQGTQVTVSS`
high polyreactivity

Try the sequence `QFHLVESGGGLVQAGGSLRLSCAAAGYTYGYYTMGWYRQAPGKERELVAAIDSGGRTNYADSVKGRFTISRDNAKNTVYLQMNSRKPEDTAVYYCAAESPLYWVDDFESGWRYYYWGQGTQVTVSS`
low polyreactivity

Query `QVQLVESGGGLVQAGGSLRLSCAASGFIFWENGMGWYRQAPGKERELVAAISSGVGRTYYADSVKGRFTISRDNAKNTVYLQMNSLKPEDTAVYYCNRARYYREFDYWGQGTQVTVSS` next
high polyreactivity

---

# Assay text: yeast display, Sf9 membrane polyspecificity reagent, FACS + sequencing; frameworks hold sequencing errors
Property name: polyreactivity (PSR sort gate)

[[record]]
monomer_sequence = "QVQLVESGGGLVQAGGSLRLSCAASGSIFPKYAMGWYRQAPGKERELVAAISRGGGSTYYADSVKGRFTISRDNAKYTVYLQMNSLKPEDTAVYYCAAQYYSLQWEYYYWGQGTQVTVSS"
property_name = "polyreactivity (PSR sort gate)"
recorded_result = "high polyreactivity"

[[record]]
monomer_sequence = "QVQLVESGGGLVQAGASLRLSRAASGLIFYRYAMGLYRPAPGKERELVAAITSGGSTYYADSVKGRFTISRDNAKNTVYLQMNSLKPEDTAVYYCAAFYVPTYYYSPYGYWGQGTQVTVSS"
property_name = "polyreactivity (PSR sort gate)"
recorded_result = "high polyreactivity"


Where do the numbers come from? From the nanobody polyreactivity screen of Harvey et al. (2022).
